- measured on: UniProt:P0DTD1
readout: IC50

Prompt: Which value of IC50 has been reported for Oc1cc(O)cc(Oc2c(O)cc(O)c3c2Oc2c(O)cc(Oc4c(O)cc(Oc5c(O)cc(O)c6c5Oc5c(O)cc(O)cc5O6)cc4O)cc2O3)c1 in the records?
Response: > 20 µM

Data credit: paper PMC9095416
